- measurementProtocol: OC study 2: EE and LN PK with/without ritlecitinib 50 mg QD
- Type: in vivo, human
- reportedConditions: female, human, plasma, oral, 50 mg
measuredParameter: AUC(0-inf)
Kindly write the number and append the unit.

## Task Please look up its AUC(0-inf): C#C[C@]1(O)CC[C@H]2[C@@H]3CCc4cc(O)ccc4[C@H]3CC[C@@]21C
## Result 0.733 ng·h/mL

----------
- measurementProtocol: OC study 2: EE and LN PK with/without ritlecitinib 50 mg QD
- Type: in vivo, human
- reportedConditions: female, human, plasma, oral, 1 Portia tablet
measuredParameter: AUC(0-inf) (ng·h/mL)
Numeric only. Scale: ng·h/mL

## Task Could you tell me which AUC(0-inf) is on file for C#C[C@]1(O)CC[C@H]2[C@@H]3CCc4cc(O)ccc4[C@H]3CC[C@@]21C ?
## Result 0.747
